Cited source: the nanobody polyreactivity screen of Harvey et al. (2022)

experiment: yeast display, Sf9 membrane polyspecificity reagent, FACS + sequencing; frameworks hold sequencing errors
reported_endpoint: polyreactivity (PSR sort gate)

sequence_entry=QVQLVESGGGLVQAGGSLRLSCAASGSTLRRNAMGWSRQAPGKERELVAAITGSRGSTFYADSVKGRFTISRDNAKNTVYLQMNSLKPEDTAVYYCAVYKWSTRVSQYRYDYWGQGTQVTVSS reported_endpoint="polyreactivity (PSR sort gate)" reported="high polyreactivity"
sequence_entry=QVQLVESGGGLVQAGGSLRLSCAASGRTFWSYAMGWYRQAPGKEREFVAAISRRGGITYYADSVKGRFTISRDNAKNTVYLQMNSLKPEDTAVYYCAALPASVRRPGWHDYWGQGTQVTVSS reported_endpoint="polyreactivity (PSR sort gate)" reported="high polyreactivity"
sequence_entry=QVQLVASGGGLVQAGGSLRLSCAASGLIIRYYAMGWYRQAPGKEREFVAAITWNGGSTYADSVKGRFTISRDNAKNTVNLQMNSLIPEDTAVYYCAADLSYWDDFDYSGQGTQVTVSS reported_endpoint="polyreactivity (PSR sort gate)" reported="low polyreactivity"
sequence_entry=QVQLQESGGGLVQAGGSLRLSCAASGTISPLPAMGWYRQAPGKEREFVAGIDTGAITNYADSVKGRFTISRDNAKNTVYLQMNSLKPEDTAVYYCAVFPAAYDYDERYYTYWGQGTQVTVSS reported_endpoint="polyreactivity (PSR sort gate)" reported="low polyreactivity"
sequence_entry=QVQLVESGGGLVQAGGSLRLSCAASGRTFGVYAMGWYRQAPGKERELVAVIRVIGGSTNYADSVKGRFTISRDNAKNTVYLQMNSLKPEDTAVYYCAADQYYSSDYDYWGQGTQVTVSS reported_endpoint="polyreactivity (PSR sort gate)" reported="low polyreactivity"

###

experiment: yeast display, Sf9 membrane polyspecificity reagent, FACS + sequencing; frameworks hold sequencing errors
reported_endpoint: polyreactivity (PSR sort gate)

sequence_entry=QVQLVESGGGLVQAGGSLRLSCAASGNILARGYAMGWYRQAPGKERELVAAITFNDGSTYYADSVKGRFTISRDNAKNTVYLQMNSLKPEDTAVYYCAADFSYVYYLYDYWGQGTQVTVSS reported_endpoint="polyreactivity (PSR sort gate)" reported="low polyreactivity"
sequence_entry=QVQLVESGGGLVQAGGSLRLSCAASGFISGFYGMGWYIQAPGKEREFVAAIDFIDGDTYYADSVKGRFTISRDKAKNTVYLQMNSLKPEDTAVYYCAADGSFCQFDYWGQGTQVTVSS reported_endpoint="polyreactivity (PSR sort gate)" reported="low polyreactivity"

###

assay: yeast display, Sf9 membrane polyspecificity reagent, FACS + sequencing; frameworks hold sequencing errors
reported_endpoint: polyreactivity (PSR sort gate)

sequence_entry=QVHLVESGGGLLQAGGSLRLSCAASGFTFFVNAMGWYRQAPGKERELVAAISIRSGGRTYYADSVKGRFTISRENAKNTVYLQMNSLKPEDTAVYYCAAESSRPEHTFHYYRFLFDYWGQGTQVTVSS reported="low polyreactivity"
sequence_entry=QVQLVESGGGLVQAGCSVRLSCAASGSFFVLNSMGWYRQAPGKERELVAAIDESGGGTYYADSVKGRFTISRDNAKNTVYLQMNSLKPEDTAVYYCAADTLAPRAYDYWGQGTQVTVSS reported="low polyreactivity"
sequence_entry=QVQLVESGGGLVQAGGSLRLSCAASGSTFDYYAMGWYRQAPGKERELVATISWSGTDTYYADSVKGRFTISRDNAKNTVYLQMNSLKPEDTAVYYCAADTVYWRGWSGYYYWGQGTQVTVSS reported="low polyreactivity"
sequence_entry=QVQLVESGGGLVQAGGSLRLSCAASGSIFGKYVMGWYRQAPGKERELVAAITFGGGSTYYADSVKGRFTISRDNAKNTVYFQMNSLKPEDTAVYYCAAKSYDERLYRRPRDYWGQGTQVTVSS reported="high polyreactivity"
sequence_entry=QDQLVESGGGLVQAGGSLRLSCAASGSTIRANAMGWYRQATGKERELVAAITKNGGSTYYADSVKGRFTISRDNAKNTVYLQMNSLKPEDTAVYYCAARRSSRRPPYYYWGQGTQVTVSS reported="high polyreactivity"
sequence_entry=QVQLVESGGGLVQAGGSLRLSCAASGRIFSAYTMGWYRQAPGNERELVAAIRWSGDSTYYADSVKGRFTISRDNAKNTVYLQKNSLKPEDTAVYYCAARDRWFPRYSSRYYSWGQGTQVSVSS reported="high polyreactivity"
sequence_entry=QDQHVESGGGLVQAGGSLRLSCAASGRISKRNVMGWYRPAPGKERELVACISSTGSTSYADSVKGRFTISRDNAKYTVYLQMNSLNPEDTAVYYCAARGQATYNWGQGTQVTVSS reported="high polyreactivity"
sequence_entry=QVQLVESGGGLVQAGGSLRLICAASGIIFAVYARGCYRQAPGKERELVAAISTSGGRTDYADSVKGRFTISRDNAKNTVYLQMNSLKPEDTAVYYCAAEYVGKGTPDDYDYWGQGTQVTVSS reported="high polyreactivity"
sequence_entry=QVQLVESGGGLVQAGGSLRLSCAATGRTFRLYAMGWYRQAPGKERELVAAITRGGRTNYADSVKGRFTISRDNAKNTVYLQMNSLKPEDTAVYYCAARYRLPIPGTQYEYWGQGTQVTVSS reported="low polyreactivity"
sequence_entry=QVQLVESGGGLVQAGGSLRLSCAASGSTFFYSMGWYRKAPRKERELVAAISWIDSITYYADSVKGRFTISRDNAKNTVYLQMNSLKPEDIAVYYCAAEGQNEGYDYWVQGTQVTVSS reported="high polyreactivity"
sequence_entry=QVQLVESGVGLVQAVGSLRLSCAASGSTFYYYAMGWYRQAPGKERELVAAISWSGAYTFYSDSVKGRFTISRDNAKNTVYLQMNSLKPEDTAVYYCAARYYGQPQYQPLYYWGQGTQVTVSS reported="high polyreactivity"
